target: Hck (UniProt P08631); experiment: phosphorylation enrichment, bacterial display (enrichment ratio); higher = better substrate or ligand; peptides without Tyr show the background
Sequence (P08631 whole entry, looked up): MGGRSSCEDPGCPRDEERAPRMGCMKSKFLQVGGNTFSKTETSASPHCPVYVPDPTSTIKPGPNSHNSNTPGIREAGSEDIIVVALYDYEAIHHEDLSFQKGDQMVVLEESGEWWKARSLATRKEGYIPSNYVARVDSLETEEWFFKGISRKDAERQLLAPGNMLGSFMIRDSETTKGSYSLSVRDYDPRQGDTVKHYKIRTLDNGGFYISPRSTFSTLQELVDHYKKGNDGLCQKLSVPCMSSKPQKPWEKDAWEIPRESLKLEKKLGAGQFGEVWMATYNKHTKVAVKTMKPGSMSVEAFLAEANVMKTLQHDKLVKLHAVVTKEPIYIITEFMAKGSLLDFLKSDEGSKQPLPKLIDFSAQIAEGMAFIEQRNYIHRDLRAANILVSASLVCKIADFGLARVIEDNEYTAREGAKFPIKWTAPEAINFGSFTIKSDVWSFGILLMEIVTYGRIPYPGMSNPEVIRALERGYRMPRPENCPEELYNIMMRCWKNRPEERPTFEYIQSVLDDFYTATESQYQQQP
Attribute Measured: phosphorylation enrichment
Quick one: just the number, no unit, thanks!

Supply reported phosphorylation enrichment belonging to this sequence: VNFQPYRKHKF [TEX37_Y28_D24N_YF]
0.459

Supply reported phosphorylation enrichment belonging to this sequence: KQNSLYSFSDH [CCDC82_Y331]
3.25

Supply reported phosphorylation enrichment belonging to this sequence: HTLQLYRCREE [ALPK3_Y342]
0.522

Supply reported phosphorylation enrichment belonging to this sequence: TDIVAYSGRVQ [SPTBN2_Y477]
0.407

Supply reported phosphorylation enrichment belonging to this sequence: KFANSYRMEPL [TCTE3_Y87]
0.414

Supply reported phosphorylation enrichment belonging to this sequence: RNDQVYQPLRD [CD3D_Y149]
10.9

Supply reported phosphorylation enrichment belonging to this sequence: TPTFPYLLPKS [PLD2_Y580_YF]
0.423

Supply reported phosphorylation enrichment belonging to this sequence: MSRDVYSTDFF [NTRK2_Y702_YF]
1.28

Supply reported phosphorylation enrichment belonging to this sequence: FADIAYNYRDG [PAH_Y166_H170D]
0.352

Supply reported phosphorylation enrichment belonging to this sequence: RLRAAYNLVKR [PFKM_Y103]
0.698

Supply reported phosphorylation enrichment belonging to this sequence: CPFNLYAEQFS [HGD_Y40_L44F_YF]
1.08

Supply reported phosphorylation enrichment belonging to this sequence: LGPSDYFGEIA [PRKAR1A_Y323]
0.602

Supply reported phosphorylation enrichment belonging to this sequence: KSVLVYRNGDP [DCDC2_Y22]
0.405

Supply reported phosphorylation enrichment belonging to this sequence: EVEFEYPFRLH [SYP_Y73]
0.509

Supply reported phosphorylation enrichment belonging to this sequence: PEVSGYCHCAD [TG_Y234]
1.08

Supply reported phosphorylation enrichment belonging to this sequence: QKMADYSNKLH [PDPR_Y104_Y109H]
0.586

Supply reported phosphorylation enrichment belonging to this sequence: SSSGAYGGGFG [KRT19_Y61_YF]
0.415

Supply reported phosphorylation enrichment belonging to this sequence: FGSVDCWEKFF [EEF1AKNMT_Y16_Y16C]
0.426

Supply reported phosphorylation enrichment belonging to this sequence: PTDCVYVMPTV [MYO7A_Y1668_S1666C]
4.49

Supply reported phosphorylation enrichment belonging to this sequence: EYQKKYSDADI [CKAP5_Y1860_K1857Q]
0.383

Supply reported phosphorylation enrichment belonging to this sequence: TYGQVYKGPHV [TNIK_Y40_R43P]
7.7

Supply reported phosphorylation enrichment belonging to this sequence: LARDMHDKEFF [MET_Y1230_Y1230H_YF]
0.812

Supply reported phosphorylation enrichment belonging to this sequence: SPYMLYQYLKQ [RPAP3_Y567_D564Y]
7.66

Supply reported phosphorylation enrichment belonging to this sequence: VAFVYYKSIGP [ADGRL4_Y302]
0.524

Supply reported phosphorylation enrichment belonging to this sequence: PSARTYCFKQE [KLHDC9_Y175_YF]
0.413

Supply reported phosphorylation enrichment belonging to this sequence: PFTRNYFVQAV [CYBA_Y87_R90Q_YF]
0.979

Supply reported phosphorylation enrichment belonging to this sequence: DPLLTHRFPPK [LMNA_Y481_Y481H]
0.381

Supply reported phosphorylation enrichment belonging to this sequence: ARIVDYNIIGW [MYH7_Y588_G584R]
0.56

Supply reported phosphorylation enrichment belonging to this sequence: SLDHPFEKPRK [INAVA_Y333_Y333F]
0.376

Supply reported phosphorylation enrichment belonging to this sequence: DRPSEYAARQL [ANXA13_Y90]
0.428

Supply reported phosphorylation enrichment belonging to this sequence: EVVGRYSVHFA [MLH1_Y183_N187Y_YF]
0.504

Supply reported phosphorylation enrichment belonging to this sequence: WQQQSYLDYGI [CTNNB1_Y30_S33Y]
0.615

Supply reported phosphorylation enrichment belonging to this sequence: ADMETYLLEKS [MYH7_Y266_I263M]
0.549

Supply reported phosphorylation enrichment belonging to this sequence: QLAPQYTFTQG [FLNA_Y1761_A1764T_YF]
0.748

Supply reported phosphorylation enrichment belonging to this sequence: WVFNHYRWIIW [BRCA2_Y2624_YF]
0.403

Supply reported phosphorylation enrichment belonging to this sequence: CTTIHCNYMCN [TP53_Y234_Y234C]
0.503

Supply reported phosphorylation enrichment belonging to this sequence: ILIFHYAKGQP [MPZ_Y82_S78L]
0.674

Supply reported phosphorylation enrichment belonging to this sequence: ETLLYYGCRRS [POR_Y564]
5.24

Supply reported phosphorylation enrichment belonging to this sequence: FGGRDYSLDEF [MYOF_Y1705_YF]
0.473

Supply reported phosphorylation enrichment belonging to this sequence: GITVTYTIPKK [UBA5_Y372_A371T]
0.54

Supply reported phosphorylation enrichment belonging to this sequence: VYLGAYDRFLP [SLC22A5_Y486]
5.32

Supply reported phosphorylation enrichment belonging to this sequence: SMGHRYIEVFR [HNRNPF_Y82_K87R]
0.453

Supply reported phosphorylation enrichment belonging to this sequence: GKTQQYECKWF [BCR_Y751_D752E_YF]
0.569

Supply reported phosphorylation enrichment belonging to this sequence: `ENAGYYFQVSA`
0.448

Supply reported phosphorylation enrichment belonging to this sequence: RELGEYALAEF [ALDH1A3_Y492_YF]
0.661

Supply reported phosphorylation enrichment belonging to this sequence: KFWREYILSLE [GPC3_Y299_YF]
0.452

Supply reported phosphorylation enrichment belonging to this sequence: GVTLLYFGRDN [ADGRD1_Y85_Y89D_YF]
0.516

Supply reported phosphorylation enrichment belonging to this sequence: VPFARYLAMNK [HARS1_Y138]
0.381

Supply reported phosphorylation enrichment belonging to this sequence: DFPMGYPSYLA [TBCK_Y153_I151M]
0.367

Supply reported phosphorylation enrichment belonging to this sequence: FSEVRYMKEPY [HIPK4_Y170_V171M]
0.536

Supply reported phosphorylation enrichment belonging to this sequence: NLAAQYTTVGR [SGSH_Y240_D235N]
0.568

Supply reported phosphorylation enrichment belonging to this sequence: ISTAGYSIPEL [EDAR_Y406]
0.534

Supply reported phosphorylation enrichment belonging to this sequence: HGEAYYSEVKP [PAK5_Y182]
3.85

Supply reported phosphorylation enrichment belonging to this sequence: QTWKTYVRHQQ [SFI1_Y164_Q167H]
0.486

Supply reported phosphorylation enrichment belonging to this sequence: RLGDLYKEEMR [VIM_Y150_E151K]
0.824

Supply reported phosphorylation enrichment belonging to this sequence: CTTIHYNFVCN [TP53_Y234_M237V_YF]
0.54

Supply reported phosphorylation enrichment belonging to this sequence: PIPAAYNKYDQ [CDC73_Y290_R292K]
0.595

Supply reported phosphorylation enrichment belonging to this sequence: MFDKEYFSVHN [MET_Y1234_YF]
0.513

----------
biological target: SHP2-C SH2; assay: SH2 binding enrichment of the phosphorylated peptide, bacterial display (enrichment ratio); higher = better substrate or ligand; peptides without Tyr show the background;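 further: peptide library displayed on the E. coli surface as eCPX fusions, selected cells deep-sequenced, score is each peptide's frequency after selection divided by its frequency in the input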
So basically: SH2 binding enrichment at 0.7 or higher? That is t. Lower than 0.7? That is f.

Has MARDIYQASYY [LTK_Y672_R673Q] a recorded SH2 binding enrichment greater than or equal to 0.7?
t

Has TMKSRYMELYD [BBS2_Y644] a recorded SH2 binding enrichment greater than or equal to 0.7?
t

Has FSTDCYRVGGH [NTRK2_Y707_Y706C_YF] a recorded SH2 binding enrichment greater than or equal to 0.7?
t

Has FKEQGYHRLPS [RIN1_Y681_P686S_YF] a recorded SH2 binding enrichment greater than or equal to 0.7?
t

Has FQGGTYSKACT [FGG_Y380_S384C_YF] a recorded SH2 binding enrichment greater than or equal to 0.7?
t

Has IGEVVYQRAVM [GRIN2A_Y502] a recorded SH2 binding enrichment greater than or equal to 0.7?
f

Has CTTIHYNFMGN [TP53_Y234_C238G_YF] a recorded SH2 binding enrichment greater than or equal to 0.7?
t

Has WQQQSYLDYGI [CTNNB1_Y30_S33Y] a recorded SH2 binding enrichment greater than or equal to 0.7?
f

Has FYNSEYGELSE [FLT4_Y1337] a recorded SH2 binding enrichment greater than or equal to 0.7?
t

Has SIKDKYLTALF [KCNH2_Y611_V612L_YF] a recorded SH2 binding enrichment greater than or equal to 0.7?
t

----------
system: AncSZ; assay: phosphorylation enrichment, bacterial display (enrichment ratio); higher = better substrate or ligand; peptides without Tyr show the background
Can you tell me phosphorylation enrichment for the items I'm about to list?
Quick one: just the number, no unit, thanks!

Supply reported phosphorylation enrichment belonging to this sequence: EAEALYQTKFQ [KRT73_Y325]
1.33

Supply reported phosphorylation enrichment belonging to this sequence: RAILLYEYVGK [NATD1_Y45_V42I]
3.29

Supply reported phosphorylation enrichment belonging to this sequence: DPHECYAKVFN [ALB_Y394_D399N]
0.844

Supply reported phosphorylation enrichment belonging to this sequence: SIKDKYLTALF [KCNH2_Y611_V612L_YF]
0.724

Supply reported phosphorylation enrichment belonging to this sequence: AYRHGYFDEEM [PLEC_Y2971_R2969H]
1.03

Supply reported phosphorylation enrichment belonging to this sequence: IHETTHNSIMK [ACTA1_Y281_Y281H]
0.452

Supply reported phosphorylation enrichment belonging to this sequence: LRYDSYSSYCN [SLC20A2_Y433]
1.32

Supply reported phosphorylation enrichment belonging to this sequence: CWAVKYLQMVG [AVPR2_Y117_R113W]
1.37

Supply reported phosphorylation enrichment belonging to this sequence: LQPNNCQFCGG [CSF1R_Y969_Y969C]
0.929

Supply reported phosphorylation enrichment belonging to this sequence: ITLKGYNLSNS [GNPTAB_Y728_K732N]
0.66

Supply reported phosphorylation enrichment belonging to this sequence: TWQSMYGCDVG [HLA-B_Y123_L119W]
1.02

Supply reported phosphorylation enrichment belonging to this sequence: RKETFYILSCR [GUCY2C_Y681_T682I]
1.44

Supply reported phosphorylation enrichment belonging to this sequence: QRHFVYFFSFL [PTEN_Y176_R173H_YF]
1.91

Supply reported phosphorylation enrichment belonging to this sequence: QLAPQYTYAQG [FLNA_Y1761]
0.722

Supply reported phosphorylation enrichment belonging to this sequence: ADMETYLLEKS [MYH7_Y266_I263M]
0.949

Supply reported phosphorylation enrichment belonging to this sequence: CERLPYDASKW [FLT1_Y815]
0.951

Supply reported phosphorylation enrichment belonging to this sequence: ALEHKYWALGQ [MAP1A_Y1555_Q1553H]
0.859

Supply reported phosphorylation enrichment belonging to this sequence: RENGPYFTSFP [GDAP2_Y487_YF]
1.03

Supply reported phosphorylation enrichment belonging to this sequence: EVKEAYMGNVL [ACAT1_Y90]
0.804

Supply reported phosphorylation enrichment belonging to this sequence: ARGMEYLASKK [FGFR1_Y613]
0.61

Supply reported phosphorylation enrichment belonging to this sequence: KFSNQYKATIG [RAB7A_Y37]
0.528

Supply reported phosphorylation enrichment belonging to this sequence: GSERRYTREGG [PTPRN2_Y139_S140T]
0.448

Supply reported phosphorylation enrichment belonging to this sequence: KVNKIYHPDFI [LIG3_Y767_Y768H]
0.542

Supply reported phosphorylation enrichment belonging to this sequence: RALLNYIASKF [GSTA3_Y74_I71L_YF]
1.13

Supply reported phosphorylation enrichment belonging to this sequence: HRDSSYFWEIE [RAF1_Y340_Q335H_YF]
1.34

Supply reported phosphorylation enrichment belonging to this sequence: LWKWRYEELKE [CCDC102B_Y299_K298R]
1.34

Supply reported phosphorylation enrichment belonging to this sequence: PNATLYKMSSI [SERPINA7_Y40]
0.592

Supply reported phosphorylation enrichment belonging to this sequence: RTTKTYFPHFD [HBA1_Y43_P38R]
0.967

Supply reported phosphorylation enrichment belonging to this sequence: FTNRNYDLDFD [MYC_Y12_YF]
1.36
